Experiment: Metabolic stability of the compound in mouse liver microsomes at 1 umol/L by HPLC-MS/MS analysis; note: time not given here
Format: ADME, Microsome
Details: dose 1 µmol/L, read-out: Stability
Reported endpoint: remaining at 1 µM (%)

Solved entries:
Cc1sc2c(c1C)C(c1ccc(Cl)cc1)=N[C@@H](CC(=O)NCCN1CC3(CCC(c4ccc5c(c4)CN(C4CCC(=O)NC4=O)C5=O)CC3)C1)c1nnc(C)n1-2 (some centres not stated) ... 33
Cc1sc2c(c1C)C(c1ccc(Cl)cc1)=N[C@@H](CC(=O)NCCCCCCNc1ccc(Cc3ccc4c(c3)CN(C3CCC(=O)NC3=O)C4=O)cc1)c1nnc(C)n1-2 (some centres not stated) ... 83
Cc1sc2c(c1C)C(c1ccc(Cl)cc1)=N[C@@H](CC(=O)NCCCNc1ccc(Cc3ccc4c(c3)CN(C3CCC(=O)NC3=O)C4=O)cc1)c1nnc(C)n1-2 (some centres not stated) ... 70
Cc1sc2c(c1C)C(c1ccc(Cl)cc1)=N[C@@H](CC(=O)NCCCCCNc1ccc(Cc3ccc4c(c3)CN(C3CCC(=O)NC3=O)C4=O)cc1)c1nnc(C)n1-2 (some centres not stated) ... 76
Cc1sc2c(c1C)C(c1ccc(Cl)cc1)=N[C@@H](CC(=O)NCCN1CC(N3CCC(c4ccc5c(c4)CN(C4CCC(=O)NC4=O)C5=O)CC3)C1)c1nnc(C)n1-2 (some centres not stated) ... 25

A. Cc1sc2c(c1C)C(c1ccc(Cl)cc1)=N[C@@H](CC(=O)NCCCCCN1CCC(c3ccc4c(c3)CN(C3CCC(=O)NC3=O)C4=O)CC1)c1nnc(C)n1-2 (some centres not stated)
B. Cc1sc2c(c1C)C(c1ccc(Cl)cc1)=N[C@@H](CC(=O)NCCCCNc1ccc(Cc3ccc4c(c3)CN(C3CCC(=O)NC3=O)C4=O)cc1)c1nnc(C)n1-2 (some centres not stated)
(Q) Hi, I'm comparing A with B and wondering which one has the bigger number for remaining at 1 µM. Any idea? # respond with the chosen item's label
(A) B
(B: 77%, A: 27%)

====

Experiment: Metabolic stability of the compound in human liver microsomes at 1 umol/L by HPLC-MS/MS analysis; note: time not given here
Type: ADME, Microsome
Conditions: dose 1 µmol/L, read-out: Stability
Reported endpoint: remaining at 1 µM (%)

Field: example entries. Status: answers known.
Cc1sc2c(c1C)C(c1ccc(Cl)cc1)=N[C@@H](CC(=O)NCCN1CCC3(CCC(c4ccc5c(c4)CN(C4CCC(=O)NC4=O)C5=O)CC3)CC1)c1nnc(C)n1-2 (stereo partly specified) ... 56
Cc1sc2c(c1C)C(c1ccc(Cl)cc1)=N[C@@H](CC(=O)NCCCN1CCC(c3ccc4c(c3)CN(C3CCC(=O)NC3=O)C4=O)CC1)c1nnc(C)n1-2 (stereo partly specified) ... 34

1. Cc1sc2c(c1C)C(c1ccc(Cl)cc1)=N[C@@H](CC(=O)Nc1ccc(Cc3ccc4c(c3)CN(C3CCC(=O)NC3=O)C4=O)cc1)c1nnc(C)n1-2 (stereo partly specified)
2. Cc1sc2c(c1C)C(c1ccc(Cl)cc1)=N[C@@H](CC(=O)NCCCCCN1CCC(c3ccc4c(c3)CN(C3CCC(=O)NC3=O)C4=O)CC1)c1nnc(C)n1-2 (stereo partly specified)
(Q) Param pair: 1 , 2 . Output: the one whose remaining at 1 µM is numerically greater. Record your answer as the label of the chosen record.
(A) 2
